# Experimental Target: mAChR M4 (Homo sapiens)
# Construct: expressed in transfected cells; host or cells: CHO-K1 cells stably transfected with M4 cDNA and chimeric G-protein Gqi5
# Sequence (P08173 1-479): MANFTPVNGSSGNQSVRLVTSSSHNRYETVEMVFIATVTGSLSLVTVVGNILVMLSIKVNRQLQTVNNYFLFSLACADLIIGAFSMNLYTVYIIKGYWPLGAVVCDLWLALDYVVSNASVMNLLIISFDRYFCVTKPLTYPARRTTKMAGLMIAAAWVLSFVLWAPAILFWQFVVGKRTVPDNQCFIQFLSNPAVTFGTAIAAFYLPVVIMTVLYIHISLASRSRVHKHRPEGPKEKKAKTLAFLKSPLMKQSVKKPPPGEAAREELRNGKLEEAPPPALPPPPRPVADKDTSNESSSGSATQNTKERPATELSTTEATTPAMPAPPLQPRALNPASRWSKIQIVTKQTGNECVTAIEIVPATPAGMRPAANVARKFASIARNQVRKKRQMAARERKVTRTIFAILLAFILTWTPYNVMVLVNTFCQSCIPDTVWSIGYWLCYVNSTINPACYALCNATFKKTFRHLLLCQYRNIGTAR
# Assay Name: mAChR M4 cell-based functional assay (calcium mobilization, potentiation of EC20 acetylcholine response)
# Assay Context: mAChR M4 cell-based functional assay; >10,000 estimated for low potency compounds without plateau; read-out: EC50
The following molecules are shown together with reported log10 of EC50 values.
Reported Property: log10 of EC50 (log10 of the value in µM)

- Molecule: "Cc1nnc2sc(C(=O)NC3CN(C(=O)Oc4ccc(C(F)(F)F)cc4)C3)c(N)c2c1C"
  log10 of EC50: -1.60
- Molecule: "Cc1nnc2sc(C(=O)NCc3ccc(C(F)F)nc3)c(N)c2c1C"
  log10 of EC50: -0.57
- Molecule: "Cc1nnc2sc(C(=O)NCc3cnn(C)c3)c(N)c2c1C"
  log10 of EC50: -0.49
- Molecule: "Cc1nnc2sc(C(=O)NC3CN(C(=O)Oc4cccc(N=[N+]=[N-])c4)C3)c(N)c2c1C"
  log10 of EC50: -2.10
- Molecule: "Cc1nnc2sc(C(=O)NCc3cccc(OC(F)(F)F)c3)c(N)c2c1C"
  log10 of EC50: -0.70
- Molecule: "Cc1nnc2sc(C(=O)NC3CN(C(=O)CCc4ccccc4)C3)c(N)c2c1C"
  log10 of EC50: -0.96
- Molecule: "Cc1nnc2sc(C(=O)NCc3ccc([S+]([O-])C(F)F)cc3)c(N)c2c1C (single isomer, unassigned) [Example B491]"
  log10 of EC50: -0.92
- Molecule: "Cc1nnc2sc(C(=O)N3CC4CN(c5ncccn5)CC4C3)c(N)c2c1C (centres unmarked)"
  log10 of EC50: 0.04
- Molecule: "Cc1ccc(C(=O)NC2CCN(C(=O)c3sc4nnc(C)c(C)c4c3N)C2)cc1 (centres unmarked)"
  log10 of EC50: 0.15
- Molecule: "CCCCOc1ccc(C(=O)N2CCC(NC(=O)c3sc4nnc(C)c(C)c4c3N)C2)cc1 (centres unmarked)"
  log10 of EC50: -0.06
- Molecule: "Cc1nnc2sc(C(=O)NC3CC3c3ccc(S(C)(=O)=O)cc3)c(N)c2c1C (centres unmarked)"
  log10 of EC50: -0.92
- Molecule: "Cc1nnc2sc(C(=O)NC3CC3)c(N)c2c1C"
  log10 of EC50: -0.59
- Molecule: "Cc1nnc2sc(C(=O)N3CC4CN(c5cccc(F)n5)CC4C3)c(N)c2c1C (centres unmarked)"
  log10 of EC50: -0.51
- Molecule: "Cc1nnc2sc(C(=O)N3CC(S(=O)(=O)c4ccccc4)C3)c(N)c2c1C"
  log10 of EC50: -0.46
- Molecule: "Cc1nnc2sc(C(=O)NCc3ccc(OC(F)(F)F)cc3)c(N)c2c1C"
  log10 of EC50: -1.52
- Molecule: "Cc1nnc2sc(C(=O)NCc3ccc(-c4cc(F)nc(F)c4)cc3)c(N)c2c1C"
  log10 of EC50: -1.57
- Molecule: "Cc1nnc2sc(C(=O)NC3CCN(S(=O)(=O)c4ccccc4OC(F)(F)F)C3)c(N)c2c1C (centres unmarked)"
  log10 of EC50: -0.51
- Molecule: "COC(=O)N1CC(NC(=O)c2sc3nnc(C)c(C)c3c2N)C1"
  log10 of EC50: -0.64
- Molecule: "COc1ccc(S(=O)(=O)C2CN(C(=O)c3sc4nnc(C)c(C)c4c3N)C2)cc1"
  log10 of EC50: -0.12
- Molecule: "Cc1nnc2sc(C(=O)NCc3ccnc(F)c3)c(N)c2c1C"
  log10 of EC50: -0.62
- Molecule: "Cc1nnc2sc(C(=O)N3CC(NC(=O)c4ccccc4)C3)c(N)c2c1C"
  log10 of EC50: 0.18
- Molecule: "CCS(=O)(=O)N1CC(NC(=O)c2sc3nnc(C)c(C)c3c2N)C1"
  log10 of EC50: -0.54
- Molecule: "Cc1nnc2sc(C(=O)NCc3ccc(CN(C)C)cc3)c(N)c2c1C"
  log10 of EC50: -0.89
- Molecule: "Cc1nnc2sc(C(=O)N3CC(Sc4ccccc4)C3)c(N)c2c1C"
  log10 of EC50: -1.04
- Molecule: "Cc1nnc2sc(C(=O)NCc3ccccn3)c(N)c2c1C"
  log10 of EC50: 0.00
- Molecule: "Cc1nnc2sc(C(=O)NCc3ccc4c(c3)OC(F)(F)O4)c(N)c2c1C"
  log10 of EC50: -1.59
- Molecule: "COc1ccc(CNC(=O)c2sc3nnc(C)c(C)c3c2N)cn1"
  log10 of EC50: -0.82
- Molecule: "Cc1nnc2sc(C(=O)NCCN(C)S(=O)(=O)c3ccc(F)cc3)c(N)c2c1C"
  log10 of EC50: 0.65
- Molecule: "Cc1nnc2sc(C(=O)NCCNC(=O)c3ccncc3)c(N)c2c1C"
  log10 of EC50: 0.59

###

# Experimental Target: mAChR M4 (Homo sapiens, UniProt P08173)
# Construct: expressed in transfected cells; host or cells: CHO-K1 cells stably transfected with M4 cDNA and chimeric G-protein Gqi5
# Assay Name: mAChR M4 cell-based functional assay (calcium mobilization, potentiation of EC20 acetylcholine response)
# Assay Context: % ACh maximum at 30 μM
Reported Property: Emax at 30 µM (%)

- Compound: "Cc1nnc2sc(C(=O)NC3CN(S(=O)(=O)c4ccoc4)C3)c(N)c2c1C [Example B100]"
  Reported Property: "Emax at 30 µM"
  Meas Value: 68
- Compound: "COc1ccc(C(C)CNC(=O)c2sc3nnc(C)c(C)c3c2N)cc1 (centres unmarked) [Example B73]"
  Reported Property: "Emax at 30 µM"
  Meas Value: 40
- Compound: "Cc1nnc2sc(C(=O)NCc3cc(F)ccc3F)c(N)c2c1C [Example B5]"
  Reported Property: "Emax at 30 µM"
  Meas Value: 86
- Compound: "Cc1nnc2sc(C(=O)NC3CN(C(=O)Nc4ccc(OC(F)F)cc4)C3)c(N)c2c1C [Example B363]"
  Reported Property: "Emax at 30 µM"
  Meas Value: 74
- Compound: "CCS(=O)(=O)N1CC(NC(=O)c2sc3nnc(C)c(C)c3c2N)C1 [Example B142]"
  Reported Property: "Emax at 30 µM"
  Meas Value: 77

###

The following compounds are shown together with reported pEC50 values.
# Experimental Target: mAChR M4 (Homo sapiens)
# Construct: expressed in transfected cells; host or cells: CHO-K1 cells stably transfected with M4 cDNA and chimeric G-protein Gqi5
# Assay Name: mAChR M4 cell-based functional assay (calcium mobilization, potentiation of EC20 acetylcholine response)
# Assay Context: mAChR M4 cell-based functional assay; >10,000 estimated for low potency compounds without plateau; read-out: EC50
pEC50: −log10 of the molar value.

- Compound: "Cc1nnc2sc(C(=O)N3CCC(NS(=O)(=O)c4cncn4C)C3)c(N)c2c1C (centres unmarked)"
  Experimental Target: "mAChR M4 (Homo sapiens)"
  pEC50: 5.42
- Compound: "Cc1nnc2sc(C(=O)N3CC(Sc4ccc(F)cc4F)C3)c(N)c2c1C"
  Experimental Target: "mAChR M4 (Homo sapiens)"
  pEC50: 6.66
- Compound: "Cc1nnc2sc(C(=O)Nc3ccccn3)c(N)c2c1C"
  Experimental Target: "mAChR M4 (Homo sapiens)"
  pEC50: 5.77
- Compound: "CCCOC(=O)N1CCC(NC(=O)c2sc3nnc(C)c(C)c3c2N)C1 (centres unmarked)"
  Experimental Target: "mAChR M4 (Homo sapiens)"
  pEC50: 6.21
- Compound: "Cc1nnc2sc(C(=O)NC3CCCC3)c(N)c2c1C"
  Experimental Target: "mAChR M4 (Homo sapiens)"
  pEC50: 6.55

###

The following compounds are shown together with reported Emax at 30 µM values.
# Experimental Target: mAChR M4 (Homo sapiens, UniProt P08173)
# Construct: expressed in transfected cells; host or cells: CHO-K1 cells stably transfected with M4 cDNA and chimeric G-protein Gqi5
# Assay Name: mAChR M4 cell-based functional assay (calcium mobilization, potentiation of EC20 acetylcholine response)
# Assay Context: % ACh maximum at 30 μM
Reported Property: Emax at 30 µM (%)

- Compound: "Cc1nnc2sc(C(=O)N3CC(F)(c4ccc(-c5cccnc5)cc4)C3)c(N)c2c1C [Example B320]"
  Reported Property: "Emax at 30 µM"
  Measurement Units: "%"
  Meas Value: 42
- Compound: "Cc1nnc2sc(C(=O)N3CCC(NC(=O)C4CC4)C3)c(N)c2c1C (stereo not drawn) [Example B236]"
  Reported Property: "Emax at 30 µM"
  Measurement Units: "%"
  Meas Value: 66
- Compound: "Cc1nnc2sc(C(=O)NCc3ccc(F)cn3)c(N)c2c1C [Example B509]"
  Reported Property: "Emax at 30 µM"
  Measurement Units: "%"
  Meas Value: 59
- Compound: "COc1cccc(OC(=O)N2CC(NC(=O)c3sc4nnc(C)c(C)c4c3N)C2)c1 [Example B368]"
  Reported Property: "Emax at 30 µM"
  Measurement Units: "%"
  Meas Value: 69
- Compound: "Cc1nnc2sc(C(=O)N3CC(NCCC(C)C)C3)c(N)c2c1C [Example B63]"
  Reported Property: "Emax at 30 µM"
  Measurement Units: "%"
  Meas Value: 41
- Compound: "Cc1nnc2sc(C(=O)NCc3ccc(-c4cccnc4)cc3)c(N)c2c1C [Example B464]"
  Reported Property: "Emax at 30 µM"
  Measurement Units: "%"
  Meas Value: 63
- Compound: "Cc1nnc2sc(C(=O)NCc3ccc(C#N)cc3)c(N)c2c1C [Example B431]"
  Reported Property: "Emax at 30 µM"
  Measurement Units: "%"
  Meas Value: 56
- Compound: "Cc1nnc2sc(C(=O)NC3C4CC5CC(C4)CC3C5)c(N)c2c1C (stereo not drawn) [Example B281]"
  Reported Property: "Emax at 30 µM"
  Measurement Units: "%"
  Meas Value: 62
- Compound: "Cc1nnc2sc(C(=O)NC3CN(C(=O)C4CCCCC4)C3)c(N)c2c1C [Example B123]"
  Reported Property: "Emax at 30 µM"
  Measurement Units: "%"
  Meas Value: 97
- Compound: "COc1ccc(OC(=O)N2CC(NC(=O)c3sc4nnc(C)c(C)c4c3N)C2)cc1 [Example B334]"
  Reported Property: "Emax at 30 µM"
  Measurement Units: "%"
  Meas Value: 69
- Compound: "Cc1nnc2sc(C(=O)NC3CN(C(=O)c4c(F)cccc4F)C3)c(N)c2c1C [Example B408]"
  Reported Property: "Emax at 30 µM"
  Measurement Units: "%"
  Meas Value: 65
- Compound: "Cc1nnc2sc(C(=O)N3CCC(c4ccncc4)C3)c(N)c2c1C (stereo not drawn) [Example B156]"
  Reported Property: "Emax at 30 µM"
  Measurement Units: "%"
  Meas Value: 53
- Compound: "Cc1nnc2sc(C(=O)N3CCC(NS(=O)(=O)c4ccc(F)cc4)C3)c(N)c2c1C (stereo not drawn) [Example B223]"
  Reported Property: "Emax at 30 µM"
  Measurement Units: "%"
  Meas Value: 61
- Compound: "Cc1nnc2sc(C(=O)NC3CN(S(=O)(=O)c4ccc(C(F)(F)F)cc4)C3)c(N)c2c1C [Example B147]"
  Reported Property: "Emax at 30 µM"
  Measurement Units: "%"
  Meas Value: 95
- Compound: "Cc1nnc2sc(C(=O)NCCNS(C)(=O)=O)c(N)c2c1C [Example B352]"
  Reported Property: "Emax at 30 µM"
  Measurement Units: "%"
  Meas Value: 51
- Compound: "Nc1c(C(=O)NCc2ccc(S(=O)(=O)C(F)F)cc2)sc2nnc3c(c12)CCCC3 [Example B427]"
  Reported Property: "Emax at 30 µM"
  Measurement Units: "%"
  Meas Value: 39
- Compound: "Cc1nnc2sc(C(=O)N3CC(Sc4ccccc4)C3)c(N)c2c1C [Example B405]"
  Reported Property: "Emax at 30 µM"
  Measurement Units: "%"
  Meas Value: 46
- Compound: "Cc1nnc2sc(C(=O)N3CC(NCc4ccccc4)C3)c(N)c2c1C [Example B65]"
  Reported Property: "Emax at 30 µM"
  Measurement Units: "%"
  Meas Value: 56
